# assay_name: activators of NF-kB expression in neurons, primary screen, cell-based, HTS (AID 1239)
# measurement_parameters: human neuronal cells, NF-kB reporter expression; at 12.5 µM
The campaign covered roughly 190,000 compounds. About 3,100 (1.6%) were called active. No stated cut-off is given here; in the data, active means fold change above about 3.3; inconclusive means no clear call, values can overlap the other calls; inactive means below that. Only a selection was taken, and actives are over-represented in it overall.
Labels: 1 = active, -1 = inactive

{"chem_smiles": "O=C(Cc1c[nH]c2ccccc12)OCCOC(=O)Cc1c[nH]c2ccccc12", "cat": -1}
{"chem_smiles": "CC1CCN(CC(=O)c2c[nH]c3ccccc23)CC1", "cat": -1}
{"chem_smiles": "O=C(COc1cccc2ccccc12)Nc1cc(S(=O)(=O)N2CCOCC2)ccc1N1CCOCC1", "cat": -1}
{"chem_smiles": "CC(C)(C)C(=O)CN1C2=NCCN2c2ccccc21", "cat": -1}
{"chem_smiles": "Cc1ccc(-c2cn3cc([N+](=O)[O-])ccc3n2)cc1", "cat": 1}
{"chem_smiles": "O=C(OCC(=O)c1c[nH]c2ccccc12)c1cccc(O)c1", "cat": 1}
{"chem_smiles": "O=C(O)c1ccccc1-c1ccccc1C(=O)NCc1cccnc1", "cat": -1}
{"chem_smiles": "COc1ccc(N2C(=O)/C(=C\\c3ccco3)N=C2SCC(N)=O)cc1Cl", "cat": -1}
{"chem_smiles": "Cc1nc(-c2ccc(NC(=O)c3cccs3)cc2)cs1", "cat": 1}
{"chem_smiles": "CCN1CCN(CC(=O)Nc2sc3c(c2C#N)CCC3)CC1", "cat": -1}
{"chem_smiles": "Cc1ccc(-c2nnc(-c3ccc(NC(=O)c4cccs4)cc3)o2)cc1", "cat": -1}

----------
# assay_name: activators of NF-kB expression in neurons, primary screen, cell-based, HTS (AID 1239)
# measurement_parameters: human neuronal cells, NF-kB reporter expression; at 12.5 µM
The whole screen tested about 190,000 compounds, of which about 3,100 (1.6%) were called active. Cut-off read from the data, not from the text of the source: active = fold change above about 3.3; inconclusive = no clear call, values can overlap the other calls; inactive = below that. For the sample, actives were picked, then their nearest neighbours and some compounds at random.
Classes used: Y for active, N for inactive

{"compound": "O=C(CSc1ccsc1[N+](=O)[O-])N1CCCCC1", "cat": "N"}
{"compound": "Cc1cc(C)nc(N2CCC(C(=O)Nc3ccc4c(c3)OCCO4)CC2)n1", "cat": "N"}
{"compound": "Cc1cccc(NC(=O)/C=C/c2ccc3c(c2)OCO3)n1", "cat": "Y"}
{"compound": "COc1cc(NC(=S)N2CCCC(C)C2)cc(OC)c1OC (stereo not given)", "cat": "N"}
{"compound": "COc1cc(/C=N\\Nc2ccc([N+](=O)[O-])cn2)ccc1OCC(=O)O", "cat": "N"}
{"compound": "N/C(Cc1ccc([N+](=O)[O-])cc1)=N\\OC(=O)C1CCCCC1", "cat": "N"}
{"compound": "O=C(COC(=O)C1CCCCC1)Nc1ccc([N+](=O)[O-])cc1", "cat": "Y"}
{"compound": "O=c1c2c(nc3n1CCCCC3)sc1c(O)cccc12", "cat": "Y"}
{"compound": "CC(CNC(=O)c1ccc(N)cc1)NC(=O)c1ccc(N)cc1 (stereo not given)", "cat": "N"}
{"compound": "CC1Cc2ccccc2N1S(=O)(=O)c1c(N)n(C)c(=O)n(C)c1=O (stereo not given)", "cat": "N"}
{"compound": "CCCOc1ccc(C(=O)NCCc2ccccc2)cc1", "cat": "Y"}
{"compound": "S=c1[nH]nc(/C=C/c2ccccc2)o1", "cat": "N"}
{"compound": "Cc1cc(C(=O)NCCCc2ccccc2)no1", "cat": "N"}
{"compound": "Cc1ccc(C(=O)NCCNC(=O)c2ccccc2)cc1", "cat": "N"}
{"compound": "Cc1ccc2nc(COc3ccc(N(C)S(=O)(=O)c4ccccc4)cc3)cc(=O)n2c1", "cat": "N"}
{"compound": "Cc1ccccc1Nc1nc(N)nc(CSc2nnc3ccccn23)n1", "cat": "N"}
{"compound": "Cc1cccc(NC(=O)Nc2ccc3c(c2)OCO3)n1", "cat": "Y"}
{"compound": "CC(C)n1c(=O)[nH]c2cc(C(=O)Nc3ccccc3)ccc21", "cat": "N"}
{"compound": "Nc1[nH]c(=S)nc2nc(-c3ccccc3)c(-c3ccccc3)nc12", "cat": "N"}
{"compound": "COc1ccc(/C=C/C(=O)Nc2ccc3c(c2)OCCO3)cc1OC", "cat": "N"}
{"compound": "O=C(/C=C/c1ccc2c(c1)OCO2)NCc1ccc(F)cc1", "cat": "N"}
{"compound": "O=C(NCCc1ccccc1)c1ccc(OCCOc2ccccc2)cc1", "cat": "N"}
{"compound": "COc1ccc(OC)c(NC(=O)CN2CCN(C(=O)c3ccco3)CC2)c1", "cat": "N"}
{"compound": "CCSc1ccccc1C(=O)Nc1ccc2c(c1)OCO2", "cat": "N"}
{"compound": "CCOC(=O)c1c(N)nn(C(=O)c2ccccc2)c1-c1ccccc1", "cat": "N"}
{"compound": "COc1ccc(-c2nnc3ccc(SCc4ccccc4)nn23)cc1", "cat": "N"}
{"compound": "O=C1c2ccccc2C(=O)N1CCC(O)C[N+](=O)[O-] (stereo not given)", "cat": "N"}
{"compound": "COc1ccccc1-n1ccnc1SCC(=O)NC(C)(C)C", "cat": "N"}
{"compound": "O=C1C2C3C=CC(C3)C2C(=O)N1c1ccc(-c2nc3ccccc3c(=O)o2)cc1 (stereo not given)", "cat": "N"}
{"compound": "CC(NCc1nc2ccccc2n1C)C12CC3CC(CC(C3)C1)C2 (stereo not given)", "cat": "N"}
{"compound": "O=c1oc(/C=C/c2ccccc2)nc2ccccc12", "cat": "Y"}
{"compound": "Cc1cc(NC(=O)CSCc2ccccc2C)no1", "cat": "N"}
{"compound": "COc1cc(C(=O)OCc2ccc([N+](=O)[O-])cc2)cc(OC)c1OC", "cat": "N"}
{"compound": "Cc1ccc2c(=O)oc(N(C)C)nc2c1", "cat": "N"}
{"compound": "CC(C)c1ccc(C(=O)NCCCc2ccccc2)cc1", "cat": "Y"}

----------
# assay_name: activators of NF-kB expression in neurons, primary screen, cell-based, HTS (AID 1239)
# measurement_parameters: human neuronal cells, NF-kB reporter expression; at 12.5 µM
In all, about 190,000 compounds went through this assay and about 3,100 (1.6%) were called active. Rule as the data show it: active = fold change above about 3.3; inconclusive = no clear call, values can overlap the other calls; inactive = below that. The sample as a whole holds a higher share of actives than the screen did.
Classes used: 1.0 (active), 0.0 (inactive)

{"chem_smiles": "O=c1[nH]c(CCl)nc2cc(-c3ccc(Cl)cc3)sc12", "cat": 1.0}
{"chem_smiles": "CCc1ccc(-c2nn(-c3ccccc3)cc2CSC(=N)N)cc1", "cat": 1.0}
{"chem_smiles": "COc1cc(-c2nc(-c3ccncc3)no2)cc(OC)c1OC", "cat": 0.0}
{"chem_smiles": "CCc1cc2c(=O)c(-c3ccc(F)cc3)c(C(F)(F)F)oc2cc1OCC(=O)O", "cat": 0.0}

----------
# assay_name: activators of NF-kB expression in neurons, primary screen, cell-based, HTS (AID 1239)
# measurement_parameters: human neuronal cells, NF-kB reporter expression; at 12.5 µM; active compounds read high
In all, about 190,000 compounds went through this assay and about 3,100 (1.6%) were called active. For the sample, actives were picked, then their nearest neighbours and some compounds at random.
A collection of compounds and their measured fold change

{"compound": "COCCNC(=O)C(c1ccc(O)cc1)N(C(=O)CCC(=O)Nc1nccs1)c1ccc(C)cc1 (configuration not stated)", "fold change": 0.99}
{"compound": "O=C(Nc1ccc(F)cc1)N1CCN(c2ccc(F)cc2)CC1", "fold change": 1.12}
{"compound": "CC(=O)Nc1ccc(NC(=O)CN2CCCC(C)C2)c(Cl)c1 (configuration not stated)", "fold change": 4.21}
{"compound": "NC(=O)N1CCc2ccccc21", "fold change": 1.08}
{"compound": "CC(C)Cc1cc(C(=O)Nc2cc(Br)ccc2O)no1", "fold change": 6.03}
{"compound": "O=C(CSc1nc2ccccc2[nH]1)c1cccs1", "fold change": 3.8}
{"compound": "N/C(=N\\OC(=O)Cc1ccc([N+](=O)[O-])cc1)c1ccccn1", "fold change": 1.74}
{"compound": "O=C(/C=C/c1ccc(Cl)cc1)Nc1ccc(S(=O)(=O)Nc2ncccn2)cc1", "fold change": 0.93}
{"compound": "COC(=O)c1ccc(NC(=O)c2ccco2)cc1", "fold change": 2.51}
{"compound": "CC(C)Cc1cc(C(=O)NCCc2ccccc2)no1", "fold change": 3.27}
{"compound": "CCOc1cc(NC(=O)CCl)c(OCC)cc1NC(C)=O", "fold change": 2.72}
{"compound": "Cn1nnc2cc(C(=O)NCCC3=CCCCC3)ccc21", "fold change": 3.75}
{"compound": "CC(C)CC(=O)NC(=S)NCc1ccccc1", "fold change": 1.01}
{"compound": "O=C(NC(=S)Nc1ccc(NC(=O)c2cccs2)cc1)c1ccc([N+](=O)[O-])cc1", "fold change": 1.11}
{"compound": "C=CCSc1nc2ccccc2[nH]1", "fold change": 1.17}
{"compound": "CCc1nnc(NS(=O)(=O)c2ccc(NC(=S)NC(=O)c3cccs3)cc2)s1", "fold change": 1.46}
{"compound": "CN(c1ccc(C(=O)NCc2ccccn2)cc1)S(C)(=O)=O", "fold change": 1.11}
{"compound": "Nc1ccc(-c2nnc(-c3ccc(-c4ccccc4)cc3)o2)cc1", "fold change": 1.31}
{"compound": "CC(C)c1ccc(NC(=O)NC2CCCCC2)cc1", "fold change": 5.47}
{"compound": "O=C(O)CSCc1nc2ccccc2s1", "fold change": 0.98}
{"compound": "COc1ccccc1N(C)S(=O)(=O)c1ccc(Cl)c(C(=O)N2CCC(C(N)=O)CC2)c1", "fold change": 1.12}
{"compound": "COc1cccc(C(=O)Nc2cc3c(cc2Br)OCCCO3)c1", "fold change": 3.38}
{"compound": "O=C(NCc1cccnc1)c1nc(-c2cccs2)no1", "fold change": 1.23}
{"compound": "CN1CCNC(=O)C1CC(=O)N1CC=C(c2ccc(F)cc2)CC1 (configuration not stated)", "fold change": 1.04}
{"compound": "O=C(OCc1ccc([N+](=O)[O-])cc1)c1ccccn1", "fold change": 1.29}
{"compound": "CCN(CC)c1ccc2oc(=O)c(C)nc2c1", "fold change": 0.65}
{"compound": "O=C(Nc1ccc(Oc2ccccc2)cc1)c1ccco1", "fold change": 4.89}
